TARGET_SYSTEM: T1, full-length beta-Catenin (Uniprot ID P35222) (Homo sapiens (Human), UniProt P35222 2-781)
T1 construct: The assay protocols say only 'full-length'; No tag is stated, although the AlphaScreen kit is a Histidine (Nickel Chelate) kit; also called B-Catenin; bCat
T1 sequence: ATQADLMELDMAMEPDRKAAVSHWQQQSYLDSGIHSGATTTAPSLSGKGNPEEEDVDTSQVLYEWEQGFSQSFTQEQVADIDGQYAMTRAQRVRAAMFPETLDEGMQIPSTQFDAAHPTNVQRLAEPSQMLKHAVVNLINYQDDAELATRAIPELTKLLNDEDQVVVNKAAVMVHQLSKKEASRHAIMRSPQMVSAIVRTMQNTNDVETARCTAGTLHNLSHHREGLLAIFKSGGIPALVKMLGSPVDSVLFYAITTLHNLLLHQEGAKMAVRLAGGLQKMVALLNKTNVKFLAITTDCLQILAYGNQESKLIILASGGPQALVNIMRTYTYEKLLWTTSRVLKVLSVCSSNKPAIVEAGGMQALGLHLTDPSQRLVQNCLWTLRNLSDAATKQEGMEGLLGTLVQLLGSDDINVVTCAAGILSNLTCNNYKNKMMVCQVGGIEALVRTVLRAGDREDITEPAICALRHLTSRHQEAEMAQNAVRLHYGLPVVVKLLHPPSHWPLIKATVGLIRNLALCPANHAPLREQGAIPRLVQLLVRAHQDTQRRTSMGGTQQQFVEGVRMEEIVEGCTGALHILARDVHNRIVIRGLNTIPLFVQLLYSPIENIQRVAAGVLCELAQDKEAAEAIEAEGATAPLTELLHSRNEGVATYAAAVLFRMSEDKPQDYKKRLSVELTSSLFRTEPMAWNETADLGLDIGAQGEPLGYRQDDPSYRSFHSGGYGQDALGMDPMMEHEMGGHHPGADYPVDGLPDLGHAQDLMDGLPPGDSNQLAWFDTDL
TEST_DESCRIPTION: fluorescence polarization competition; peptide titrated against full-length beta-catenin + 5FAM-TCF4(10-53) probe
Starred links: 1 amine or outer side, 2 acyl side, 3 side chain; linkers in the order of their positions; H or OH if unused. Positions of bridges follow the written chain, without caps; N, C: chain ends. Non-standard residues stand in square brackets, D forms with d. Primed or numbered codes have the meaning given here. B5(19) = 2-amino-2-(pent-4-en-1-yl)hept-6-enoic acid (bis(4-pentenyl)glycine), C=CCCCC(CCCC=C)(N[*:1])C(=O)[*:2]; Phe(4-CN) = N#Cc1ccc(C[C@H](N)C(=O)O)cc1; Bta = N[C@@H](Cc1csc2ccccc12)C(=O)O; αAllylPro = C=CC[C@@]1(C(=O)O)CCCN1; S8 = C=CCCCCCC[C@](C)(N)C(=O)O
The binders listed here are annotated with their EC50.

BINDER	EC50
XDAXDDAAFVXFAQ (not fully specified; N-terminal Ac; C-terminal NH2; PL3 at 1, B5 at 4, S8 at 11 (stapled 1-4 and 4-11), Stapled peptide composition; Later-eluting isomer composition; also called Ac-PL3-Asp-Ala-B5-Asp-Asp-Ala-Ala-Phe-Val-S8-Phe-Ala-Gln-NH2) [I-358]	5 µM
XDAXDDAAAVXFWQ (not fully specified; N-terminal Ac; C-terminal NH2; PL3 at 1, B5 at 4, S8 at 11 (stapled 1-4 and 4-11), Stapled peptide composition; Later-eluting isomer composition; also called Ac-PL3-Asp-Ala-B5-Asp-Asp-Ala-Ala-Ala-Val-S8-Phe-Trp-Gln-NH2) [I-354]	5 µM
Ac-[αAllylPro]DA[B5(19)]DDAAFV[S8][Phe(4-CN)][Bta]Q-NH2 (staple 1-4, 4-11, Stapled peptide composition; also called Ac-PL3-Asp-Ala-B5-Asp-Asp-Ala-Ala-Phe-Val-S8-4CNF-BztA-Gln-NH2) [I-359]	5 µM
